molecular target: human macrodomain MacroD2 (Homo sapiens, UniProt A1Z1Q3); assay: HTRF peptide displacement assay, MacroD2; type: binding; settings: Human MacroD2 HTRF assay, dose-response; read-out: IC50
Sequence (A1Z1Q3 with tags, fused parts or gaps): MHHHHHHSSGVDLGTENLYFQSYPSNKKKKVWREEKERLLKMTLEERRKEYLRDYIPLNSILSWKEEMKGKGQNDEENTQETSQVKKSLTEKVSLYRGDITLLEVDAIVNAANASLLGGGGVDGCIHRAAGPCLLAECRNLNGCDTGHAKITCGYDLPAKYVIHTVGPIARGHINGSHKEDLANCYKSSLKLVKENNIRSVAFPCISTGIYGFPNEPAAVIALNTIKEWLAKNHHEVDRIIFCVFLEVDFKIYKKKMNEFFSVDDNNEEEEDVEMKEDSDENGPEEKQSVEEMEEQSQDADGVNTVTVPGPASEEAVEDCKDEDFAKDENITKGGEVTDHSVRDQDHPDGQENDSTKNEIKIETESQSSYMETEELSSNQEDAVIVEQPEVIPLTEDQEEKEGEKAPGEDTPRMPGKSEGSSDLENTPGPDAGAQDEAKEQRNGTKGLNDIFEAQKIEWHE
pIC50: −log10 of the molar value.
endpointName: pIC50

query: // query pIC50 value for entry CC(c1ccccc1)C(CO)Nc1ncnc2[nH]ccc12 (stereo not shown)
result: < 3.00

* * *

target: SARS-CoV-2 NSP3 macrodomain (Mac1), P43 crystal form (Severe acute respiratory syndrome coronavirus 2, UniProt P0DTD1); format: binding; details: crystal soak 10 mM; DMSO background map
endpointName: PanDDA run, DMSO background map: 1-BDC
Please state the value as a number alone, without comment.

query: // query PanDDA run, DMSO background map: 1-BDC value for entry OCC(CC1OCCO1)Nc1ncnc2[nH]ccc12 (stereo not shown)
result: 0.2

query: // query PanDDA run, DMSO background map: 1-BDC value for entry `CCC(CC)(CO)Nc1ncnc2[nH]ccc12`
result: 0.12

query: // query PanDDA run, DMSO background map: 1-BDC value for entry OCC(Nc1ncnc2[nH]ccc12)c1ccco1 (stereo not shown)
result: 0.16

query: // query PanDDA run, DMSO background map: 1-BDC value for entry OCC(CC1CCC1)Nc1ncnc2[nH]ccc12 (stereo not shown)
result: 0.18

query: // query PanDDA run, DMSO background map: 1-BDC value for entry CCC(C)(CO)Nc1ncnc2[nH]ccc12 (stereo not shown)
result: 0.16

query: // query PanDDA run, DMSO background map: 1-BDC value for entry `O=C(O)C(F)(F)F.OC[C@@H](CCc1ccccc1)Nc1ncnc2[nH]ccc12`
result: 0.14

query: // query PanDDA run, DMSO background map: 1-BDC value for entry O=C(O)C(F)(F)F.OCC(Nc1ncnc2[nH]ccc12)C1CCCO1 (stereo not shown)
result: 0.22
